Reference source: PubChem BioAssay (EPA / NIEHS)

- Read-out: Lipase C (LIPC), LIPC (gene 3990)
- assay_comment: LTEA_HepaRG_LIPC: Life Technologies and Expression Analysis (LTEA) Assay for Lipase C (LIPC) using HepaRG (AID 2283514)
- conditions: mRNA level, 48 h; actives raise or lower the signal
Calls of active or inactive are those of the source. Rule for the calls: active = hit-call score of the fitted dose curve at least 0.9, where 1 is the maximum; inactive = score below 0.9.
Outcomes: active, inactive

> print(dat)
                                    compound  assigned.category
 1  COC(=O)N(C(=O)N1CO[C@@]2(C(=O)OC)Cc3cc(Cl)ccc3C2=N1)c1ccc(OC(F)(F)F)cc1             active
 2                             O=P(O)(O)CCCl           inactive
 3      COC(=O)NC(=S)Nc1ccccc1NC(=S)NC(=O)OC           inactive
 4  C=C(C)CN(CC)c1c([N+](=O)[O-])cc(C(F)(F)F)cc1[N+](=O)[O-]           inactive
 5  CS(=O)(=O)c1cc(C(F)(F)F)ccc1C(=O)c1cnoc1C1CC1           inactive
 6  CCOC(=O)C(C)OC(=O)c1cc(Oc2ccc(C(F)(F)F)cc2Cl)ccc1[N+](=O)[O-] (stereo unspecified)           inactive
 7  CCN(CC)C(=O)C(C)Oc1cccc2ccccc12 (stereo unspecified)             active
 8  CCOc1nc(F)cc2nc(S(=O)(=O)Nc3c(Cl)cccc3Cl)nn12           inactive
 9                Nc1cnn(-c2ccccc2)c(=O)c1Cl           inactive
10         N#Cc1c[nH]cc1-c1cccc2c1OC(F)(F)O2             active
11          CCN(CC)c1nc(C)cc(OP(=S)(OC)OC)n1           inactive
12                      COc1cc(Cl)c(OC)cc1Cl           inactive
13      Cc1ccc(N=CN(C)C=Nc2ccc(C)cc2C)c(C)c1           inactive
14          CCOP(=O)(OCC)Oc1nc(Cl)c(Cl)cc1Cl             active
15     COP(=S)(OC)Oc1ccc([N+](=O)[O-])c(C)c1           inactive
16  Cc1cnc(C2=NC(C)(C(C)C)C(=O)N2)c(C(=O)O)c1 (stereo unspecified)           inactive
